- STUDY_TARGET: T1, CXCR4 D97N (human, UniProt P61073-1 1-352, D97N)
- T1 construct: human CXCR4, isoform 1 or b; source: 293T cells, transiently transfected (pcDNA3.1 CXCR4-IRES-eGFP), on cells
- T1 sequence (P61073 whole entry D97N, canonical isoform): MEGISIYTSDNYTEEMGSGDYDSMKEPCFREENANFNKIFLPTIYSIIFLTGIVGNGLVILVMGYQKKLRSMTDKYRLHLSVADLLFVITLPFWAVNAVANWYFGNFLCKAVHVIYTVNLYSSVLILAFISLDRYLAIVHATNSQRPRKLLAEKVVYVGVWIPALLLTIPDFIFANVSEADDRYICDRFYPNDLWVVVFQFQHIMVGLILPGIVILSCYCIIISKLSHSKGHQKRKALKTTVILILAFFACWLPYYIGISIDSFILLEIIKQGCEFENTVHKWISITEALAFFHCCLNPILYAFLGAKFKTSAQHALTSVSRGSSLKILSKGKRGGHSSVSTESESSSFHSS
- EXPERIMENTAL_DETAILS: flow cytometry on cells; 12G5 antibody competition on 293T cells transiently transfected with CXCR4 wt or mutants (IRES-eGFP vector), eGFP-positive cells gated; serially diluted peptide with a constant concentration of CXCR4 antibody clone 12G5, 2 h; bound antibody read; IC50 by nonlinear regression
- MEASUREMENT_CONTEXT: one partner purified
OBSERVATION_TYPE: IC50

Item LVRYTKKVPQVSTPTL (source: synthetic peptide (Fmoc solid-phase synthesis, HPLC-purified)) [EPI-X4 (Alb408-423)] has what recorded IC50? > 1000 µM
